Hey, just so you know, these numbers are from patent US12011444B2.

Tested Target: UniProt P35408
Assay Remarks: hEP4 b-arrestin assay (PathHunter HEK 293 PTGER4 b-arrestin cells)
Assay type: cell-based
Measurement Context: antagonistic activity on hEP4; mean where measured multiple times
The reader will find reported IC50 values listed item by item below.

| Record Smiles | Unit Info | IC50 |
| --- | --- | --- |
| COc1ccc(Cl)c2c1cc(C)n2CCNc1cc(-c2ccc3[nH]c(C)nc3c2)ncn1 | µM | 0.713 |
| COc1ccc(F)c2c1cc(C)n2CCNc1cc(-c2ccc3ncccc3c2)ncn1 | µM | 0.06 |
| COc1ccc(F)c2c1cc(C)n2CCNc1cc(-c2ccc(-c3cc(N)no3)cc2)ncn1 | µM | 0.012 |
| CSc1cc(-c2cc(NCCn3c(C)cc4c(C)c(F)cc(Cl)c43)ncn2)ccc1C(=O)O | µM | 0.513 |
| COc1ccc(F)c2c1cc(C)n2CCNc1cc(-c2ccc(S(C)(=O)=O)c(F)c2)ncn1 | µM | 0.993 |
| CCc1cc(-c2cc(NCCn3c(C)cc4c(F)ccc(F)c43)ncn2)ccc1C(=O)O | µM | 0.765 |
| CCc1cc(-c2cc(NCCn3c(C)cc4c(C)ccc(F)c43)ncn2)sc1C(=O)O | µM | 0.058 |
| Cc1sc(N)nc1-c1ccc(-c2cc(NCCn3c(C)cc4c(C)ccc(F)c43)ncn2)cc1 | µM | 0.249 |

###

The reader will find reported log10 IC50 values listed item by item below.
Tested Target: PTRGER4 (EP4) (Homo sapiens (Human))
Sequence (P35408 whole entry, looked up): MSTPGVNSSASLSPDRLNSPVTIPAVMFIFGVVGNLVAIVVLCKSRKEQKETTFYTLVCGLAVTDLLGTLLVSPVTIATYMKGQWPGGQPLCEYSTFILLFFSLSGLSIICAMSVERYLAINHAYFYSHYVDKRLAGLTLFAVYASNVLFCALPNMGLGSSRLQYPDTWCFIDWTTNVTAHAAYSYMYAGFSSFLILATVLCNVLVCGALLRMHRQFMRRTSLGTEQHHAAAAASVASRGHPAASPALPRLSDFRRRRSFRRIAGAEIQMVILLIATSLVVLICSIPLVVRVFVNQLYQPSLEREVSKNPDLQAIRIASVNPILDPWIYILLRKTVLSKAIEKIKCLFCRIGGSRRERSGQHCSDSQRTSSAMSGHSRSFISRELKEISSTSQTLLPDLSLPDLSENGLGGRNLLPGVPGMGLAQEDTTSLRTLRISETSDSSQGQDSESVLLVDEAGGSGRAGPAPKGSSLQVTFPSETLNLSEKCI
Assay Remarks: hEP4 b-arrestin assay (PathHunter HEK 293 PTGER4 b-arrestin cells)
Format: cell-based
Measurement Context: antagonistic activity on hEP4; mean where measured multiple times
Description: The assay is using the PathHunter™ HEK 293 PTGER2 and PTGER4 b-arrestin cell lines from DiscoverX. The system is based on the Enzyme Fragment Complementation Technology. Two complementing fragments of the b-galactosidase enzyme are expressed within stably transfected cells. […] Twelve μl of reagent are transferred to the assay plate and incubate for 1 hour at room temperature in the dark. Luminescence counts are read on a BMG Fluostar Optima reader according to manufacturer's instructions. […]
Metric Name: log10 IC50 (log10 of the value in nM)

| Record Smiles | Metric Name | Reported Measurement |
| --- | --- | --- |
| Cc1ccc(F)c2c1cc(C)n2CCNc1cc(-c2ccc(C(=O)O)c(Cl)c2)ncn1 | log10 IC50 | 2.76 |
| Cc1cc(-c2cc(NCCn3c(C)cc4c(C)ccc(F)c43)ncn2)cc(Cl)c1C(=O)O | log10 IC50 | 2.20 |
| COc1cc(F)cc2c1cc(C)n2CCNc1cc(-c2cc(Cl)c(C(=O)O)s2)ncn1 | log10 IC50 | 1.59 |
| COc1ccc(Cl)c2c1cc(C)n2CCNc1cc(-c2ccc3cnn(C)c3c2)ncn1 | log10 IC50 | 2.99 |
| CNS(=O)(=O)c1ccc(-c2cc(NCCn3c(C)cc4c(OC)ccc(F)c43)ncn2)cc1C | log10 IC50 | 2.57 |
| COc1cccc2c1cc(C)n2CCNc1cc(-c2ccc(-c3nnc[nH]3)cc2)ncn1 | log10 IC50 | 2.31 |
| CCc1cc(-c2cc(NCCn3c(C)cc4c(C)ccc(F)c43)ncn2)cc(F)c1C(=O)O | log10 IC50 | 2.69 |
| COc1cccc2c1cc(C)n2CCNc1cc(-c2ccc(-c3cc(N)no3)cc2)ncn1 | log10 IC50 | 1.20 |
| COc1cccc2c1cc(C)n2CCNc1cc(-c2ccc(S(N)(=O)=O)c(C)c2)ncn1 | log10 IC50 | 2.97 |
| Cc1ccc(F)c2c1cc(C)n2CCNc1cc(-c2ccc(-c3cnco3)cc2)ncn1 | log10 IC50 | 2.72 |
| Cc1cccc2c1cc(C)n2CCNc1cc(-c2ccc(C(=O)O)c(CC(C)C)c2)ncn1 | log10 IC50 | 2.68 |
| COc1cc(F)cc2c1cc(C)n2CCNc1cc(-c2cc(Cl)c(C(=O)O)c(Cl)c2)ncn1 | log10 IC50 | 2.02 |
| Cc1cc2ccccc2n1CCNc1cc(-c2cc(Cl)c(C(=O)O)s2)ncn1 | log10 IC50 | 2.80 |
| Cc1ccc(F)c2c1cc(C)n2CCNc1cc(-c2cc(Br)c(C(=O)O)cc2F)ncn1 | log10 IC50 | 2.97 |
| CCOc1cc(-c2cc(NCCn3c(C)cc4c(OC)ccc(F)c43)ncn2)ccc1CNC | log10 IC50 | 2.86 |
| COc1ccc(F)c2c1cc(C)n2CCNc1cc(-c2ccc3c(c2)CNC3=O)ncn1 | log10 IC50 | 2.66 |
| Cc1ccc(F)c2c1cc(C)n2CCNc1cc(-c2ccc(N3CCCS3(=O)=O)cc2)ncn1 | log10 IC50 | 2.96 |
| CCc1cc(-c2cc(NCCn3c(C)cc4cc(OC)cc(F)c43)ncn2)sc1C(=O)O | log10 IC50 | 2.12 |
| COc1ccc(Cl)c2c1cc(C)n2CCNc1cc(-c2ccc3[nH]cnc3c2)ncn1 | log10 IC50 | 2.84 |
| COc1cc(-c2cc(NCCn3c(C)cc4c(C)cc(F)cc43)ncn2)ccc1C(=O)O | log10 IC50 | 2.86 |
| COc1ccc(F)c2c1cc(C)n2CCNc1cc(-c2ccc3nc(C)oc3c2)ncn1 | log10 IC50 | 2.12 |
| CCSc1cc(-c2cc(NCCn3c(C)cc4ccccc43)ncn2)ccc1C(=O)O | log10 IC50 | 2.83 |
| Cc1cc(-c2cc(NCCn3c(C)cc4c(Cl)ccc(F)c43)ncn2)ccc1C(=O)O | log10 IC50 | 2.84 |
| COc1cc(-c2cc(NCCn3c(C)cc4c(C)cccc43)ncn2)ccc1C(=O)O | log10 IC50 | 2.98 |
| Cc1ccc(F)c2c1cc(C)n2CCNc1cc(-c2ccc(C(=O)O)cc2)ncn1 | log10 IC50 | 2.73 |
| COc1ccc(F)c2c1cc(C)n2CCNc1cc(-c2ccc(-c3nnc[nH]3)cc2)ncn1 | log10 IC50 | 2.01 |
| COc1ccc(F)c2c1cc(C)n2CCNc1cc(-c2csc(CO)c2)ncn1 | log10 IC50 | 2.74 |
| CCOc1cc(-c2cc(NCCn3c(C)cc4c(C)c(F)cc(Cl)c43)ncn2)ccc1C(=O)O | log10 IC50 | 2.50 |
| CCOc1cc(-c2cc(NCCn3c(C)cc4c(Cl)cc(Cl)cc43)ncn2)sc1C(=O)O | log10 IC50 | 1.60 |
| Cc1ccc(F)c2c1cc(C)n2CCNc1cc(-c2ccc(CO)c(Cl)c2)ncn1 | log10 IC50 | 2.52 |
| COc1cc(F)cc2c1cc(C)n2CCNc1cc(-c2ccc(-c3ccn(C)n3)cc2)ncn1 | log10 IC50 | 1.93 |
| COc1ccc(F)c2c1cc(C)n2CCNc1cc(-c2ccc(-c3ncno3)cc2)ncn1 | log10 IC50 | 2.09 |
| CCOc1cc(-c2cc(NCCn3c(C)cc4c(C)cc(F)cc43)ncn2)sc1C(=O)O | log10 IC50 | 1.41 |

###

Tested Target: PTGER2 (EP2) (Homo sapiens (Human))
Sequence (P43116 whole entry): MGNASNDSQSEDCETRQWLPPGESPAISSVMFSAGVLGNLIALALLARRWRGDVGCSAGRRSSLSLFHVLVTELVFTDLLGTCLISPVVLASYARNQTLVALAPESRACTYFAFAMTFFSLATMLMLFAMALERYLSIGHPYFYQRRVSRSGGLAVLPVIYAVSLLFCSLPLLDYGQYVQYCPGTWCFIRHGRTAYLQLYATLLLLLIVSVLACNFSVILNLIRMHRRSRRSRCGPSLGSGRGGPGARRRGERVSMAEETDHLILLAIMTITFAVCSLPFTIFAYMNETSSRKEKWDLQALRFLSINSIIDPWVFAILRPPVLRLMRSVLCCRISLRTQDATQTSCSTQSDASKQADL
Assay Remarks: hEP2 b-arrestin assay (PathHunter HEK 293 PTGER2 b-arrestin cells)
Type: cell-based
Measurement Context: antagonistic activity on hEP2; mean where measured multiple times
The reader will find reported IC50 values listed item by item below.
Metric Name: IC50 (nM)

| Molecule | Reported Measurement |
| --- | --- |
| COc1ccc(F)c2c1cc(C)n2CCNc1cc(-c2ccc3c(c2)CCO3)ncn1 [compound 325] | 159 |
| COc1cc(F)cc2c1cc(C)n2CCNc1cc(-c2ccc3c(c2)CCN3)ncn1 [compound 62] | 11 |
| Cc1cc(F)c(F)c2c1cc(C)n2CCNc1cc(-c2ccc(-c3ncno3)cc2)ncn1 [compound 187] | 20 |
| COc1ccc(Cl)c2c1cc(C)n2CCNc1cc(-c2cc(C)c(C(=O)O)c(C)c2)ncn1 [compound 287] | 183 |

###

Tested Target: EP2 (Homo sapiens (Human), UniProt P43116);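 also: antagonism of PGE2-stimulated cAMP accumulation in SF295 human glioblastoma cells with endogenous EP2, cAMP read by HTRF, expressed relative to DMSO control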
In this scheme, each record receives a class according to its IC50; the ranges are Low = under 10 nM, Mid = from 10 nM up to 40 nM, High = 40 nM and over

| Molecule | Assigned Class |
| --- | --- |
| Cc1ccc(F)c2c1cc(C)n2CCNc1cc(-c2ccc3nn[nH]c3c2)ncn1 [compound 739] | High |
| COc1ccc(F)c2c1cc(C)n2CCNc1cc(-c2ccc(C(=O)O)c(N3CCCC3)c2)ncn1 [compound 478] | Mid |
| COc1cc(F)c(F)c2c1cc(C)n2CCNc1cc(-c2ccc(-c3cc(C)no3)cc2)ncn1 [compound 717] | High |
| CCCCOc1cc(-c2cc(NCCn3c(C)cc4c(OC)ccc(Cl)c43)ncn2)ccc1C(=O)O [compound 613] | Low |
| COc1cccc2c1cc(C)n2CCNc1cc(-c2ccc(C(=O)O)c(NCC(F)(F)F)c2)ncn1 [compound 568] | Low |
| Cc1ccc(F)c2c1cc(C)n2CCNc1cc(-c2ccc3c(c2)CN(CC(C)C)C3=O)ncn1 [compound 467] | High |
| COc1ccc(F)c2c1cc(C)n2CCNc1cc(-c2ccc(C(=O)O)c(OCC(C)C)c2)ncn1 [compound 616] | Low |
| CCOc1cc(-c2cc(NCCn3c(C)cc4c(OC)cccc43)ncn2)cc(Cl)c1C(=O)O [compound 599] | Mid |
| Cc1cc(F)cc2c1cc(C#N)n2CCNc1cc(-c2ccc(C(=O)O)c(CC(C)C)c2)ncn1 [compound 481] | High |
| Cc1cc(F)c(F)c2c1cc(C)n2CCNc1cc(-c2ccc(C(=O)O)c(CC(C)C)c2)ncn1 [compound 502] | High |
| COc1cc(F)cc2c1cc(C)n2CCNc1cc(-c2ccc3oc(C)nc3c2)ncn1 [compound 687] | High |
| CCCOc1cc(-c2cc(NCCn3c(C)cc4c(C)ccc(F)c43)ncn2)ccc1C(=O)O [compound 441] | Mid |
| COc1cc(F)cc2c1cc(C)n2CCNc1cc(-c2ccc3c(ccn3C)c2)ncn1 [compound 705] | Mid |
| CCOc1cc(-c2cc(NCCn3c(C)cc4c(F)c(F)cc(F)c43)ncn2)ccc1C(=O)O [compound 449] | Low |
